- Tested on: BOKU;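 note: growth inhibition of the human BOKU cell line, read out by a cell viability assay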
- method notes: cells
- Format: functional, cell-based
- recorded conditions: Homo sapiens
- Description: SANGER: Inhibition of human BOKU cell growth in a cell viability assay.
pIC50: −log10 of the molar value. Where a SMILES comes first, the peptide text is derived from it. The star is where a group is joined. Cbz = O=C(OCc1ccccc1)*
reported metric: pIC50

Here is how some compounds turned out for pIC50.
Cc1ccc(C(=O)Nc2ccc(CN3CCN(C)CC3)c(C(F)(F)F)c2)cc1C#Cc1cnc2cccnn12 | < 6.29
CC(C)C[C@@H](C=O)NC(=O)[C@H](CC(C)C)NC(=O)[C@H](CC(C)C)NC(=O)OCc1ccccc1 [MG-132] (Cbz-Leu-Leu-Leu-aldehyde) | < 6.00
Cc1cc(N2CCOCC2)cc2[nH]c(-c3c(NC[C@@H](O)c4cccc(Cl)c4)cc[nH]c3=O)nc12 | 5.50

Hi! What's the reported pIC50 for Cc1ccc(NC(=O)c2ccc(CN3CCN(C)CC3)cc2)cc1Nc1nccc(-c2cccnc2)n1 on BOKU?
< 5.70
